- Test system: methicillin-resistant staphylococcus ATCC43300
- experiment: In-vitro bacteriostatic experiment, two-fold agar dilution MIC
- Type: cell-based
- applied conditions: agar dilution, 10^6 CFU/ml, 24 hours at 37° C.
property name: MIC MRSA ATCC43300 (mg/L)
Only the number, expressed in mg/L, is required.

Solved entries:
C=CC1(C)CC(OC(=O)CSc2ccccc2NC(=O)c2cccc(C)c2)C2(C)C(C)CCC3(CCC(=O)C32)C(C)C1O (stereo not drawn)
0.5
C=CC1(C)CC(OC(=O)CSc2ccccc2NC(=O)c2ccc(F)cc2)C2(C)C(C)CCC3(CCC(=O)C32)C(C)C1O (stereo not drawn)
1
C=C[C@]1(C)C[C@@H](OC(=O)CSc2ccccc2NC(=O)c2ccccc2C)[C@]2(C)[C@H](C)CC[C@]3(CCC(=O)[C@H]32)[C@@H](C)[C@@H]1O
0.25
C=CC1(C)CC(OC(=O)CSc2ccccc2NC(=O)c2cccc(F)c2)C2(C)C(C)CCC3(CCC(=O)C32)C(C)C1O (stereo not drawn)
0.125

// recorded MIC MRSA ATCC43300 for C=CC1(C)CC(OC(=O)CSc2ccccc2NC(=O)c2ccccc2OC)C2(C)C(C)CCC3(CCC(=O)C32)C(C)C1O (stereo not drawn) : 0.5

// recorded MIC MRSA ATCC43300 for C=CC1(C)CC(OC(=O)CSc2ccccc2NC(=O)c2ccccc2F)C2(C)C(C)CCC3(CCC(=O)C32)C(C)C1O (stereo not drawn) : 0.5

// recorded MIC MRSA ATCC43300 for C=CC1(C)CC(OC(=O)CSc2ccccc2NC(=O)c2ccc(C)cc2)C2(C)C(C)CCC3(CCC(=O)C32)C(C)C1O (stereo not drawn) : 0.5

// recorded MIC MRSA ATCC43300 for C=CC1(C)CC(OC(=O)CSc2ccccc2NC(=O)c2cccc(Cl)c2)C2(C)C(C)CCC3(CCC(=O)C32)C(C)C1O (stereo not drawn) : 0.25

// recorded MIC MRSA ATCC43300 for C=CC1(C)CC(OC(=O)CSc2ccccc2NC(=O)c2cccc(OC)c2)C2(C)C(C)CCC3(CCC(=O)C32)C(C)C1O (stereo not drawn) : 1

----------
- Tested on: methicillin-resistant staphylococcus ATCC43300
- experiment: In-vitro bacteriostatic experiment, two-fold agar dilution MIC
- Assay type: cell-based
- applied conditions: agar dilution, 10^6 CFU/ml, 24 hours at 37° C.
- Experimental: Minimum inhibitory concentrations (MIC) of a series of compounds obtained in the disclosure were measured by using a two-fold agar dilution method. An experimental control drug selected valnemulin, and valnemulin belongs to pleuromutilin antibiotics and is the most widely applied veterinary antibiotic in the pleuromutilin antibiotics at present. […]
property name: MIC MRSA ATCC43300 (µg/mL)
Only the number, expressed in µg/mL, is required.

Solved entries:
C=C[C@]1(C)C[C@@H](OC(=O)CSc2ccccc2NC(=O)c2ccccc2Cl)[C@]2(C)[C@H](C)CC[C@]3(CCC(=O)[C@H]32)[C@@H](C)[C@@H]1O [Compound 7]
0.5
C=C[C@]1(C)C[C@@H](OC(=O)CSc2ccccc2NC(=O)c2ccc(OC)cc2)[C@]2(C)[C@H](C)CC[C@]3(CCC(=O)[C@H]32)[C@@H](C)[C@@H]1O [Compound 12]
1

// recorded MIC MRSA ATCC43300 for C=C[C@]1(C)C[C@@H](OC(=O)CSc2ccccc2NC(=O)c2ccc(Cl)cc2)[C@]2(C)[C@H](C)CC[C@]3(CCC(=O)[C@H]32)[C@@H](C)[C@@H]1O [Compound 9] : 0.5
